assay: Bimatoprost solubility in formulation vehicles with different solubilizers
Type: physicochemical
assay.conditions: formulation vehicle with 1% SOLUPLUS (PCA-PVA-PEG), aqueous with cosolvent or surfactant or cyclodextrin; vehicle with 1% SOLUPLUS (PCA-PVA-PEG), 5 °C, measured at 1 week only
measure.name: solubility at 1 week (µg/mL)
Numeric only. Scale: µg/mL

## Task // lookup solubility at 1 week for CCNC(=O)CCC/C=C\C[C@@H]1[C@@H](/C=C/[C@@H](O)CCc2ccccc2)[C@H](O)C[C@@H]1O
## Result 427

* * *

assay: Bimatoprost solubility in formulation vehicles with different solubilizers
Assay type: physicochemical
assay.conditions: formulation vehicle with 1% SOLUTOL HS 15, aqueous with cosolvent or surfactant or cyclodextrin; vehicle with 1% SOLUTOL HS 15, 40 °C, measured at 8 weeks
measure.name: solubility at 8 weeks (µg/mL)
Numeric only. Scale: µg/mL

## Task // lookup solubility at 8 weeks for CCNC(=O)CCC/C=C\C[C@@H]1[C@@H](/C=C/[C@@H](O)CCc2ccccc2)[C@H](O)C[C@@H]1O
## Result 1240
